experiment: amyloid nucleation score (Sup35N fusion, yeast selection) (log enrichment); library NNK2; higher = more nucleation; inactive = no reads after selection;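 further: zero at mode of non-aggregating sequences after 7 days selection at 30°C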
Hi, to clarify the labels: criterion met covers amyloid nucleation score from 0.06 upward, criterion not met covers anything below 0.06.

Here's what some known entries look like.
Test whether the sequence GGCSTRWHKDVYDNGDNGDF records amyloid nucleation score of 0.06 or higher.
criterion not met

Would you kindly repeat that for MSVMWLASLISFQLFMAAQL ?
criterion met

Same lookup for VLSSRSEDTGQACEVIICVV , please.
criterion met

Continuing:
Is amyloid nucleation score at least 0.06? Consider VTKDCNMRMKCTSSIIFLKN
criterion not met

// query: CSGYSERAPRFCSDLIVCST
criterion met

What do we get for SKLVSYIDWVGSRILRYTCV ?
criterion not met

Queued: LLFLRYVVYFGNLDCLGLYM
criterion not met

Let us now turn to REVLWCLPDQGELPGGVTFG
criterion met

---

assay: amyloid nucleation score (Sup35N fusion, yeast selection) (log enrichment); library NNK3; higher = more nucleation; inactive = no reads after selection
outcome-measure: amyloid nucleation score

Example entries and their recorded answers appear below.
Reported amyloid nucleation score for RLTWESTMYVKIVGMSYAFG : what is it?
-0.241

Thanks! And CSWVGAMFVQWNLPAPTEGI ?
0.341

Next: GFYSLISQQQFVLNFNGYKM
2.34

Entry to check: AVVRDDLVSCPPSAATLQIP
inactive

Thanks! And FGYHYWVSATCMSLALSWLT ?
inactive

Next entry: LLVGEIGYLEHTMHNCEVEG
inactive

Follow-up item: VFYSKKDRMGGQFS
inactive

New cases:
For the sequence VLLGAVYKQNLANQYYSNLY , what amyloid nucleation score is on record?
inactive

---

assay: amyloid nucleation score (Sup35N fusion, yeast selection) (log enrichment); library NNK3; higher = more nucleation; inactive = no reads after selection
outcome-measure: amyloid nucleation score

amyloid nucleation score for VFVMETTKLFSNDIGVRGGW ?
0.717

Further, for LIGQFISYIKSVIGSDRKGC ?
inactive

What do you have for DNSCVMMKTGGRYFELFRVV ?
inactive

FLTWRIGVVS , same question.
inactive

Try IRYLYLV next.
inactive

Okay, and MIDDYRECSYIYF ?
inactive

What would you report for FFASRENPSFHFVSFWTYTW ?
inactive

Repeat for the following substance: WLELVSCS
inactive

Check GTSICDVKFAPLYSE too.
inactive

Also FYVNCFSL ?
1.01

Further cases:
May I ask what amyloid nucleation score has been recorded for DYIRRWLVYAYDKVFCRLTV ?
inactive

Record: NEFVSYNLLVTGGWSRCWYF
inactive

Another substance: SENSRRSLSAYFLQYGLWFW
inactive

---

assay: amyloid nucleation score (Sup35N fusion, yeast selection) (log enrichment); library NNK2; higher = more nucleation; inactive = no reads after selection
outcome-measure: amyloid nucleation score
Form rule: numeric answer, no unit written next to it.

// query amyloid nucleation score value for entry IWYCRK
-1.11

Same lookup for RRIIQCSDEFVLYQCNMLRC , please.
0.759

For PLWCSAGALLYWYKYPWFWL then?
-0.332

---

experiment: amyloid nucleation score (Sup35N fusion, yeast selection) (log enrichment); library NNK3; higher = more nucleation; inactive = no reads after selection
outcome-measure: amyloid nucleation score

These solved cases illustrate the format of a correct answer.
Recorded amyloid nucleation score for NTRTLSMYAVHGNIRVFMAE , please?
0.917

What about TSFGPKLPTGVFVCEGSNDR ?
inactive

Subsequent entry: GLVWCFCLCSITSYIMVILF
inactive

# repeat for CLFQIIVNTSYIGKFHTVLG
1.88

Next up: KSFLLPCFCRTLWTWMHRHA
1.11

***
So what does the record say about amyloid nucleation score for LRFVSKLWWFISMSSRSHLH ?
inactive

Could you do the same for RIFSFT , please?
inactive
